These entries and their values trace back to ChEMBL document CHEMBL5543081.

Assay: Antioxidant activity assessed as FRAP radical scavenging activity by measuring reduction of Fe3+ complex to Fe2+ analogue incubated for 30 mins by FRAP assay
Type: functional
Classification field: enter y for Activity values not below 0.9 µM, n for values below it.

Q: Reported Activity reaches at least 0.9 µM for O=C(N/N=C\c1c(O)cc(O)cc1/C=C/c1ccc(O)cc1)c1cccc(O)c1 ?
A: y

Q: Reported Activity reaches at least 0.9 µM for Cc1ccccc1C(=O)N/N=C\c1c(O)cc(O)cc1/C=C/c1ccc(O)cc1 ?
A: n

Q: Reported Activity reaches at least 0.9 µM for O=C(N/N=C\c1c(O)cc(O)cc1/C=C/c1ccc(O)cc1)c1ccc(F)cc1 ?
A: n

Q: Reported Activity reaches at least 0.9 µM for Nc1ccccc1C(=O)N/N=C\c1c(O)cc(O)cc1/C=C/c1ccc(O)cc1 ?
A: y

Q: Reported Activity reaches at least 0.9 µM for Cc1ccc(C(=O)N/N=C\c2c(O)cc(O)cc2/C=C/c2ccc(O)cc2)cc1 ?
A: n

Q: Reported Activity reaches at least 0.9 µM for N#Cc1ccc(C(=O)N/N=C\c2c(O)cc(O)cc2/C=C/c2ccc(O)cc2)cc1 ?
A: n

Q: Reported Activity reaches at least 0.9 µM for Cc1c(C)c2c(c(C)c1O)CCC(C)(C(=O)O)O2 (configuration not stated) ?
A: y

Q: Reported Activity reaches at least 0.9 µM for O=C(N/N=C\c1c(O)cc(O)cc1/C=C/c1ccc(O)cc1)c1ccccc1F ?
A: y

Q: Reported Activity reaches at least 0.9 µM for O=C(N/N=C\c1c(O)cc(O)cc1/C=C/c1ccc(O)cc1)c1cccnc1 ?
A: y

Q: Reported Activity reaches at least 0.9 µM for O=C(N/N=C\c1c(O)cc(O)cc1/C=C/c1ccc(O)cc1)c1ccc(O)cc1 ?
A: y

Q: Reported Activity reaches at least 0.9 µM for O=C(N/N=C\c1c(O)cc(O)cc1/C=C/c1ccc(O)cc1)c1ccc(Cl)cc1 ?
A: n

Q: Reported Activity reaches at least 0.9 µM for Nc1ccc(C(=O)N/N=C\c2c(O)cc(O)cc2/C=C/c2ccc(O)cc2)cc1 ?
A: y

Q: Reported Activity reaches at least 0.9 µM for O=C(N/N=C\c1c(O)cc(O)cc1/C=C/c1ccc(O)cc1)c1cccc([N+](=O)[O-])c1 ?
A: n

Q: Reported Activity reaches at least 0.9 µM for O=C(N/N=C\c1c(O)cc(O)cc1/C=C/c1ccc(O)cc1)c1cccc(F)c1 ?
A: n

Q: Reported Activity reaches at least 0.9 µM for O=C(N/N=C\c1c(O)cc(O)cc1/C=C/c1ccc(O)cc1)c1ccncc1 ?
A: y

Q: Reported Activity reaches at least 0.9 µM for O=C(N/N=C\c1c(O)cc(O)cc1/C=C/c1ccc(O)cc1)c1ccccc1 ?
A: n

Q: Reported Activity reaches at least 0.9 µM for O=C(N/N=C\c1c(O)cc(O)cc1/C=C/c1ccc(O)cc1)c1ccc(Br)cc1 ?
A: n
